Below, each entry is listed alongside its reported MIC.
- System: super sensitive Gram-negative Escherichia coli (E. coli) BAS849
- Protocol details: Antibacterial activity, microbroth dilution MIC, E. coli BAS849
- Type: cell-based
- Measurement context: Escherichia coli; E. coli BAS849, microbroth dilution; read-out: MIC, BAS849
Measured quantity: MIC

INSERT INTO measurements (compound, reported_value) VALUES
  ('CCc1cc(C(=O)O)c(=O)[nH]c1-c1ccc(NCCN(C)C)cc1 [Cpd 159]', '1 to 3.5 µg/mL'),
  ('CCc1cc(C(=O)O)c(=O)[nH]c1-c1ccc(N2CCC(NCc3ccccc3)C2)cc1.Cl (stereo not drawn) [Cpd 174]', '< 1 µg/mL'),
  ('CCc1c(-c2ccc(O)cc2)[nH]c(=O)c(C(=O)O)c1O [Cpd 334]', '3.5 to 12.5 µg/mL'),
  ('CCc1c(-c2ccccc2N2CCCC2)[nH]c(=O)c(C(=O)O)c1O [Cpd 47]', '1 to 3.5 µg/mL'),
  ('CCc1cc(C(=O)O)c(=O)[nH]c1-c1ccc(N2C[C@@H](N)[C@H](O)C2)cc1.Cl [Cpd 133]', '1 to 3.5 µg/mL'),
  ('CCc1c(-c2ccc(N3CCCCC3)cc2OC)[nH]c(=O)c(C(=O)O)c1O [Cpd 49]', '3.5 to 12.5 µg/mL'),
  ('CCc1c(-c2ccc(C3=CCN(C)CC3)cc2)[nH]c(=O)c(C(=O)O)c1O [Cpd 342]', '1 to 3.5 µg/mL'),
  ('CCc1c(-c2ccc(C3=CCN(CC)CC3)cc2)[nH]c(=O)c(C(=O)O)c1O [Cpd 341]', '1 to 3.5 µg/mL'),
  ('CCc1c(-c2ccc(N3CCCCC3)s2)[nH]c(=O)c(C(=O)O)c1O [Cpd 309]', '< 1 µg/mL');
